The measured values listed here are drawn from patent US11718618B2.

Give ED50 for every item shown.
Test system: male Sprague-Dawley rats
Experimental Protocol: Open-field hypolocomotion / locomotor activity (LMA) assay
Type: in vivo
Condition Notes: Rattus norvegicus, pre-treatment 60 or 120 minutes, beam breaks in 30 min, read-out: ED50, reduction of locomotor activity
Numbers only, in mg/kg.

Consider the reported ED50 for these compounds:
- Compound Structure: "COc1cc2c(cc1OC[C@@H](C)O)CCN1C[C@@H](CC(C)(C)C)[C@H](O)C[C@H]21"
  Units: "mg/kg"
  ED50: 0.29
- Compound Structure: "COc1cc2c(cc1OCC1(F)CC1)CCN1C[C@@H](CC(C)(C)C)[C@H](O)C[C@H]21"
  Units: "mg/kg"
  ED50: 0.31
- Compound Structure: "COc1cc2c(cc1OCCC(F)(F)F)CCN1C[C@@H](CC(C)(C)C)[C@H](O)C[C@H]21"
  Units: "mg/kg"
  ED50: 0.18
- Compound Structure: "COc1cc2c(cc1OC[C@H](O)C(F)(F)F)CCN1C[C@@H](CC(C)(C)C)[C@H](O)C[C@H]21"
  Units: "mg/kg"
  ED50: 0.21
- Compound Structure: "COc1cc2c(cc1OC1CC1)CCN1C[C@@H](CC(C)(C)C)[C@H](O)C[C@H]21"
  Units: "mg/kg"
  ED50: 0.14

--- query ---
Exercise: What value of ED50 has been recorded for this entry: "COc1cc2c(cc1OCC(F)(F)F)CCN1C[C@@H](CC(C)(C)C)[C@H](O)C[C@H]21"
Key: 0.24
